Organism: Homo sapiens
Assay: Cytosolic phospholipase A2 (c-PLA2) inhibitory potency of the compound was evaluated by measuring the calcium ionophore A-23,187-induced arachidonic acid release from human platelets
Format: functional
Entries and their IC50
readout: IC50 (µM)

| smiles data | unit of measure | quantitative result |
| --- | --- | --- |
| CCCCCCCCCCCC(=O)c1c(C(=O)O)n(CCSc2ccc(C(=O)O)cc2)c2ccccc12 | µM | 2.5 |
| CCCCCCCCCCCC(=O)c1c(C(=O)O)n(CCOc2ccc(CC(=O)O)cc2)c2ccccc12 | µM | 2.6 |
| CCCCCCCCCCCC(=O)c1c(C(=O)O)n(CCCCCCCC(=O)O)c2ccccc12 | µM | 2.5 |
| CCCCCCCCCCCC(=O)c1c(C(=O)O)n(CCOc2ccc(C(=O)O)cc2)c2ccccc12 | µM | 0.86 |

Recorded values, source ChEMBL document CHEMBL1133970.
